We begin with a simple list: items and their reported hS1P2 IP-one pEC50.
- Measured on: human sphingosine-1-phosphate receptor 2 (S1P2) (Homo sapiens (Human))
- Sequence (O95136 whole entry): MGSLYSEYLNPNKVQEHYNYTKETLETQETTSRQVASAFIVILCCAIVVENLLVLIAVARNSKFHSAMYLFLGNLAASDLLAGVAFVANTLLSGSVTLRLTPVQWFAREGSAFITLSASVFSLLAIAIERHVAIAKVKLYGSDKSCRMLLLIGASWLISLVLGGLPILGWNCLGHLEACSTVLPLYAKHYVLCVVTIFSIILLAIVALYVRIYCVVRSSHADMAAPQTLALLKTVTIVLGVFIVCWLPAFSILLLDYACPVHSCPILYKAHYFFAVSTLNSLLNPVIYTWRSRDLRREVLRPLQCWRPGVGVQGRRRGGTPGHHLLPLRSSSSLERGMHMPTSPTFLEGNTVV
- Protocol description: Inositol monophosphate production (IP-one TB kit), S1P2 CHO-K1 cells
- Type: cell-based
- Test settings: inositol monophosphate accumulation, hS1P2
- From the text: Stable clonal Chinese hamster ovary K1 (CHO-K1) cells co-expressing EA-β-arrestin2 and the human sphingosine-1-phosphate receptor 2 (NM_004230.3, S1P2), human sphingosine-1-phosphate receptor 3 (NM_005226, S1P3) and sphingosine-1-phosphate receptor 5 (NM_001166215.1, S1P5) with a C-terminal Prolink™ tag were purchased from DiscoverX corporation (S1P2: Cat #93-0256C2, S1P3: Cat #93-0217C2, S1P5: Cat #93-0583C2). […]

Consider the reported hS1P2 IP-one pEC50 for these compounds:
# Compound, Quantity kind, Reported
data = [
    ("CC(C)n1nnc2cc(-c3nc4c(o3)Cc3ccccc3-4)ccc21 [Compound 219]", "hS1P2 IP-one pEC50", ">5.0"),
    ("CCC1(CC)CC(=O)c2cc(-c3nc(-c4ccc5[nH]ncc5c4)no3)ccc2O1 [Compound 152]", "hS1P2 IP-one pEC50", "<5.0"),
    ("COc1ccc(-c2noc(-c3ccc4c(c3)nnn4CC(C)(C)O)n2)c(C)c1 [Compound 26]", "hS1P2 IP-one pEC50", "<5.0"),
    ("CC(C)Nc1ccc(-c2nc(-c3ccc4c(c3)CCC(=O)N4)no2)cc1C#N [Compound 259]", "hS1P2 IP-one pEC50", "<5.0"),
]

Kindly review the next compound as well.
Data request, read-out hS1P2 IP-one pEC50, for CC(C)n1nnc2cc(-c3nc(-c4cccc5c4OCO5)no3)ccc21 [Compound 32]
<5.0
